Origin of values: PubChem BioAssay (NCI)

- Test system: OVCAR-4 ovarian
- MEASUREMENT_NOTES: NCI-60 one-dose screen, 48 h
- EXPERIMENTAL_SETUP: 10 µM
About 83,000 compounds went through this panel and 20% of them were active in at least one assay; those are over-represented in the sample as a whole. The source made the active and inactive calls. The calls were made as follows: active = growth percent below 10; inactive = the rest.
Possible outcomes: active, inactive

- COMPOUND: "C=CC[Se]C(=O)c1ccc(C(=O)[Se]CC=C)s1"
  LABEL_VALUE: "active"
- COMPOUND: "COCCOCCOCCOc1ccc(-n2cc(-c3ccc(O[C@H]4O[C@@H]5OC6(C)CC[C@H]7[C@H](C)CC[C@@H]([C@H]4C)[C@@]57OO6)cc3)nn2)cc1"
  LABEL_VALUE: "inactive"
- COMPOUND: "CC[C@]12C=CCN3CC[C@@]4(c5ccc(OC)cc5N(C)[C@H]4[C@@](O)(C(=O)OC)[C@@H]1OC(=O)CCC[P+](c1ccc(C)cc1)(c1ccc(C)cc1)c1ccc(C)cc1)[C@@H]32"
  LABEL_VALUE: "active"
- COMPOUND: "O=C(/C=C/c1ccccc1)c1nc2ccccc2n1Cc1ccc(F)cc1"
  LABEL_VALUE: "inactive"
- COMPOUND: "O=C(/C=C/c1ccc(F)cc1)c1nc2ccccc2n1Cc1ccc(Br)cc1"
  LABEL_VALUE: "inactive"
- COMPOUND: "Cc1c2oc3c(C)ccc(C(=O)N[C@@H]4C(=O)N[C@H](C(C)C)C(=O)N5CCC[C@H]5C(=O)N(C)CC(=O)N(C)[C@@H](C(C)C)C(=O)OC4C)c3nc-2c(C(=O)N[C@@H]2C(=O)N[C@H](C(C)C)C(=O)N3CC(=O)C[C@H]3C(=O)N(C)CC(=O)N(C)[C@@H](C(C)C)C(=O)OC2C)c(N)c1=O (stereo partly specified)"
  LABEL_VALUE: "inactive"
- COMPOUND: "O=C(/C=C/c1ccc(Cl)cc1)c1nc2ccccc2n1Cc1ccc(Br)cc1"
  LABEL_VALUE: "inactive"
- COMPOUND: "CC(=C\\C(=O)Oc1ccc2c3c1OC1C(O)CCC4(O)C(C2)N(CC2CCC2)CCC314)/C=C1\\CCCc2ccccc21 (stereo unspecified)"
  LABEL_VALUE: "inactive"
- COMPOUND: "CC1=C(CCC=O)C2=C(C)C3(CC3)[C@@](C)(O)C(=O)C2=C1"
  LABEL_VALUE: "active"
- COMPOUND: "COC(=O)C[C@](O)(CCC(C)C)C(=O)O[C@H]1C(OC)=C[C@@]23CCCN2CCc2cc4c(cc2[C@@H]13)OCO4"
  LABEL_VALUE: "active"
- COMPOUND: "CC1=C2C(=C[C@@](C)(COP(=O)(Oc3ccccc3)Oc3ccccc3)[C@@H]2O)C(=O)[C@@](C)(O)C12CC2"
  LABEL_VALUE: "active"
- COMPOUND: "O=C(/C=C/c1ccco1)c1nc2ccccc2n1Cc1ccc(F)cc1"
  LABEL_VALUE: "inactive"
- COMPOUND: "CC(C)N=C([Se])NC(=O)c1ccccc1"
  LABEL_VALUE: "active"
- COMPOUND: "CC12OOC(C)(OO1)C2CCC(=O)OCCNc1ccnc2cc(Cl)ccc12 (stereo unspecified)"
  LABEL_VALUE: "active"
- COMPOUND: "C[C@H]1[C@H](OC(=O)CCC(=O)Nc2cnccn2)O[C@@H]2OC3(C)CC[C@H]4[C@H](C)CC[C@@H]1[C@@]24OO3"
  LABEL_VALUE: "inactive"
- COMPOUND: "O=C(/C=C/c1ccccc1Cl)c1nc2ccccc2n1Cc1ccc(F)cc1"
  LABEL_VALUE: "active"
- COMPOUND: "CC[C@@]12CC(C(=O)OC)=C3Nc4cc5c(cc4[C@@]34CCN(C[C@H]3O[C@H]31)[C@@H]24)[C@@H]1[C@H](O5)[C@@H](O)[C@@]2(CC)CC(C(=O)OC)=C3Nc4cc(OC)ccc4[C@@]34CCN1[C@@H]24"
  LABEL_VALUE: "active"
- COMPOUND: "O=C(/C=C/c1cccc(Br)c1)c1nc2ccccc2n1Cc1ccc(Br)cc1"
  LABEL_VALUE: "inactive"
- COMPOUND: "CC[C@]12C=CCN3CC[C@@]4(c5ccc(OC)cc5N(C)[C@H]4[C@@](O)(C(=O)OC)[C@@H]1OC(=O)CCCC[P+](C1CCCCC1)(C1CCCCC1)C1CCCCC1)[C@@H]32"
  LABEL_VALUE: "inactive"
- COMPOUND: "C[C@H]1[C@H](OC(=O)CCC(=O)N(CCCc2cn(-c3ccc([N+](=O)[O-])cc3)nn2)CCNc2ccnc3cc(Cl)ccc23)O[C@@H]2OC3(C)CC[C@H]4[C@H](C)CC[C@@H]1[C@@]24OO3"
  LABEL_VALUE: "inactive"
- COMPOUND: "C#CCCCN(CCNc1ccnc2cc(Cl)ccc12)C(=O)CCC(=O)O[C@@H]1O[C@@H]2OC3(C)CC[C@H]4[C@H](C)CC[C@@H]([C@H]1C)[C@@]24OO3"
  LABEL_VALUE: "inactive"
- COMPOUND: "COc1cc(OC)c(/C=C/C(=O)c2nc3ccccc3n2Cc2ccc(F)cc2)c(OC)c1"
  LABEL_VALUE: "inactive"
- COMPOUND: "COc1cc2cc(C(=O)N3C[C@@H](CCl)c4c3cc(OC(=O)N3CCN(C)[C@@H]5CSSC[C@H]53)c3ccccc43)[nH]c2c(OC)c1OC"
  LABEL_VALUE: "active"
- COMPOUND: "CC(=O)Oc1ccccc1C(=O)[Se]C(=NC(C)C)NC(C)C"
  LABEL_VALUE: "active"
- COMPOUND: "CC12OOC(C)(OO1)C2CCC(=O)NCCNc1ccnc2cc(Cl)ccc12 (stereo unspecified)"
  LABEL_VALUE: "inactive"
- COMPOUND: "CCOC(=O)C1=C(Nc2ccccc2)C(=O)OC12C(=O)Nc1ccccc12 (stereo unspecified)"
  LABEL_VALUE: "inactive"

---

Overview of recorded growth for various molecules
- Test system: HL-60(TB) leukemia
- MEASUREMENT_NOTES: NCI-60 one-dose screen, 48 h (100 = growth as untreated, 0 = no growth, -100 = all killed)
- EXPERIMENTAL_SETUP: 10 µM unless noted
The panel holds about 83,000 compounds, 20% with a hit somewhere; the sample as a whole holds those more often.

- MOLECULE: "COc1cccc(C(=O)CSc2nc(-c3ccc(OCc4ccccc4)c(OC)c3)c(C#N)c(=O)[nH]2)c1"
  growth / %: 97.2
- MOLECULE: "C/C(=N\\N=C\\c1cc([N+](=O)[O-])ccc1Cl)c1ccc2c(c1)Nc1ccccc1S2"
  growth / %: 84.6
- MOLECULE: "O=C(Nc1ccc(-c2ccc3c(c2)NC(=O)/C3=C\\c2ccc[nH]2)cc1)Nc1ccc(Cl)c(Cl)c1"
  growth / %: 51.8
- MOLECULE: "CN(C)CCn1c2ccccc2c2nc3cc(C(F)(F)F)ccc3nc21"
  growth / %: 24.7
- MOLECULE: "COc1ccc2[nH]c(O)c(N=Nc3nc(-c4ccc(C#N)cc4)cs3)c2c1"
  growth / %: 84.4
- MOLECULE: "CC1(c2ccccc2)NC(=O)N(CC(=O)Nc2ccc(C(=O)/C=C/c3ccc(Cl)cc3)cc2)C1=O (centres undefined)"
  growth / %: -27.7
- MOLECULE: "COc1c(F)ccc(C(=O)Nc2ccc3nc(NC(=O)C4CCCN(S(=O)(=O)c5ccc(Cl)cc5)C4)sc3c2)c1F (centres undefined)"
  growth / %: 83.4
- MOLECULE: "O=C(Nc1ccc(OCc2ccc(Cl)cc2)cc1)Nc1ccc(Cl)c(C(F)(F)F)c1"
  growth / %: 0.65
- MOLECULE: "COc1ccc2nc(Cl)c(-c3cc(-c4ccccc4)nc(=S)[nH]3)cc2c1"
  growth / %: 19.6
- MOLECULE: "COc1ccc(OC)c(/C=C/C(=O)c2nc3ccccc3n2Cc2ccc(F)cc2)c1"
  growth / %: -11.3
- MOLECULE: "CN(C(=O)CN1C(=O)/C(=C/c2ccco2)SC1=S)C1CCS(=O)(=O)C1 (centres undefined)"
  growth / %: 81.6
- MOLECULE: "COc1ccc(C(=O)/C=C/c2ccc(Cl)c(C(F)(F)F)c2)cc1S(N)(=O)=O"
  growth / %: 6.1
- MOLECULE: "CC(C)(C)OC(=O)/C=C/c1cccc2c1C(=O)NC(C)(c1cc3cc(Cl)ccc3oc1=O)N2 (centres undefined)"
  growth / %: -6.16
- MOLECULE: "CCOC(=O)/C(F)=C/C1CC1CCc1ccc(OCC)cc1 (centres undefined)"
  growth / %: 101
- MOLECULE: "O=C(CNc1nc(-c2ccccc2)cs1)Nc1ccc(Cl)cc1"
  growth / %: -46.7
- MOLECULE: "Cc1cc(C)cc(NC(=O)Cn2cc(COn3nnc4ccccc43)nn2)c1"
  growth / %: 92.6
- MOLECULE: "CCCCSc1nc(Nc2ccc(/C(C)=N/NC(N)=S)cc2)c(C#N)c(-c2ccccc2)n1"
  growth / %: 79.3
- MOLECULE: "COc1cc2c3c(n(CCCNC(C)C)c(=O)c2cc1OC)-c1nc2c(cc1C3=O)OCO2"
  growth / %: 71.6
- MOLECULE: "O=C(c1ccc(O)cc1)C1[C@H](c2ccc(Br)cc2)[C@@H](c2ccccc2)NC12C(=O)Nc1ccc(Br)cc12 (some centres undefined)"
  growth / %: 12.5
- MOLECULE: "O=C(Nc1cccc(-c2cn(-c3ccc4oc(=O)ccc4c3)nn2)c1)Nc1cc(C(F)(F)F)cc(C(F)(F)F)c1"
  growth / %: 34.3
- MOLECULE: "COc1cc(NC(=O)c2cccc(C3CCc4c(cc(OC)c(OC)c4OC)O3)c2)cc(OC)c1OC (centres undefined)"
  growth / %: 4.25
- MOLECULE: "CO[C@@H]1CSSC1Cn1nc(-c2ccc(Oc3ccccc3)cc2)c2c(N)ncnc21 (some centres undefined)"
  growth / %: 13.3
- MOLECULE: "CC[C@]12C=CCN3CC[C@]4(C(=C(C(=O)OC)C1)Nc1cc(OC)c([C@@H]5[C@H]6O[C@H]6[C@@]6(CC)CC(C(=O)OC)=C7Nc8cc(OC)ccc8[C@@]78CCN5[C@@H]68)cc14)[C@@H]32"
  growth / %: 25
- MOLECULE: "NS(=O)(=O)c1ccc(Nc2nc(N/N=C/c3cc(Br)c(O)c(Br)c3)nc(Nc3ccccc3)n2)cc1"
  growth / %: 47.3
- MOLECULE: "CN(C)c1nc(NCCNS(=O)(=O)c2ccc(C3=Nc4c(N)nc(N)nc4NC(c4ccccc4)C3)cc2)nc(Nc2ccc(F)cc2)n1 (centres undefined)"
  growth / %: -6.76
- MOLECULE: "O=C(N/N=C/c1ccc(-c2cccc([N+](=O)[O-])c2)s1)c1[nH]c2ccc(Br)cc2c1-c1ccccc1"
  growth / %: 81.4
- MOLECULE: "COc1cc(NC(=O)c2cc(-c3ccc(F)cc3F)ccc2O)cc(OC)c1OC"
  growth / %: 15.8
- MOLECULE: "COc1ccc(N2N=C(c3ccc4c(c3)OCO4)CC2c2cccc(NC(=O)CCCNS(=O)(=O)c3ccc(F)cc3)c2)cc1 (centres undefined)"
  growth / %: 55.7
- MOLECULE: "CN(C)c1nc(NCCNS(=O)(=O)c2ccc(C(=O)/C=C/c3ccccc3)cc2)nc(Nc2ccc(F)cc2)n1"
  growth / %: 14
